# literature pull: PIK3CD (Human) (UniProt O00329) pIC50
pIC50: −log10 of the molar value.

# example entries with known answers
compound=CN1CCN(S(=O)(=O)c2ccc(Nc3ncc4cc(C#N)c(=O)n(C5CCCC5)c4n3)cc2)CC1 systemname="PIK3CD (Human) (UniProt O00329)" result=5.43
compound=C[C@H](Nc1ncnc2[nH]cnc12)c1cc2cccc(-c3cnn(C)c3)c2c(C(=O)N2CCOCC2)n1 systemname="PIK3CD (Human) (UniProt O00329)" result="> 7.00"
compound=CC(=O)Nc1cn2cc(-c3ccc4nccc(-c5ccncc5)c4c3)ccc2n1 systemname="PIK3CD (Human) (UniProt O00329)" result="< 5.00"
compound=Nc1nc2cc(-c3ccc4ncc(-c5cn[nH]c5)nc4c3)ccc2o1 systemname="PIK3CD (Human) (UniProt O00329)" result="> 6.00"
compound=CC(=O)Nc1cccc(-c2ccc3ncnc(Nc4ccc(CC#N)cc4)c3c2)c1 systemname="PIK3CD (Human) (UniProt O00329)" result="< 5.00"

Input line: What reported pIC50 corresponds to CN1CCN(C(=O)c2cnc3ccc(-c4ccc5nc(N)sc5c4)cn23)CC1 on PIK3CD (Human) (UniProt O00329)?
Output line: < 5.00

Input line: What reported pIC50 corresponds to CN1CCC[C@H]1C(=O)N[C@H]1CC[C@H](Oc2cc(-n3c(C(F)F)nc4ccccc43)nc(N3CCOCC3)n2)CC1 on PIK3CD (Human) (UniProt O00329)?
Output line: 7.85

Input line: What reported pIC50 corresponds to Cc1cccc2cc([C@@H](C)Nc3ncnc4[nH]cnc34)n(-c3ccccc3)c(=O)c12 on PIK3CD (Human) (UniProt O00329)?
Output line: > 5.00

----------
# literature pull: PIK3CD (Human) IC50

# example entries with known answers
compound=CS(=O)(=O)N1CCN(C(=O)c2cnc3ccc(-c4ccc5oc(N)nc5c4)cn23)CC1 experimentalendpoint=IC50 result="< 10 µM"
compound=C[C@@H](Nc1ncnc2[nH]cnc12)c1cc2cccc(Cl)c2c(CN2CCCC2)n1 experimentalendpoint=IC50 result="> 10 µM"
compound=Cc1cccnc1-n1c(Cn2nc(I)c3c(N)ncnc32)cc2cccc(C)c2c1=O experimentalendpoint=IC50 result="< 1 µM"

Turning now to a further compound:
Input line: What reported IC50 corresponds to CN1CCN(C(=O)Cn2ncc3c(-c4cnc(N)nc4)nc(N4CCOCC4)nc32)CC1 on PIK3CD (Human)?
Output line: 0.1 to 10 µM

----------
# literature pull: UniProt:O00329 pIC50
pIC50: −log10 of the molar value.

compound=CS(=O)(=O)N1CCN(Cc2csc3c(-c4ccc(N)nc4)nc(N4CCOCC4)nc23)CC1 systemname=UniProt:O00329 result=6.72
compound=Cc1cccc2cc([C@H](C)Nc3ncnc4cccnc34)nc(CCN3CCOCC3)c12 systemname=UniProt:O00329 result="> 7.00"
compound=Cc1nc([C@H](C)Nc2ncnc3[nH]cnc23)cc2cccc(C(=O)N3CCOCC3)c12 systemname=UniProt:O00329 result="> 6.00"
compound=CC(=O)Nc1nc2ccc(-c3nn(Cc4cc5cccc(C)c5c(=O)n4-c4cccc(F)c4)c4ncnc(N)c34)cc2s1 systemname=UniProt:O00329 result="> 7.00"
compound=COc1ncc(-c2nc(N3CCOCC3)nc3c(CN4CCN(C(C)(C)C)CC4)csc23)cc1NS(=O)(=O)C1CC1 systemname=UniProt:O00329 result=8.44
compound=Cc1cccnc1-n1c(Cn2nc(I)c3c(N)ncnc32)cc2ccccc2c1=O systemname=UniProt:O00329 result="> 5.00"

Turning now to a further molecule:
Input line: Can you share its pIC50? I mean this molecule: Cc1ccn2nc(N)c(C(=O)N[C@@H](C)c3cc4cccc(Cl)c4c(=O)n3-c3ccccc3)c2n1
Output line: 6.00 to 7.00

----------
# literature pull: PIK3CD (Human) (UniProt O00329) IC50

compound=C[C@H](NC(=O)c1c(N)nn2cccnc12)c1cc2cccc(Cl)c2c(=O)n1CCN(C)C experimentalendpoint=IC50 result="< 100 nM"
compound=C[C@H](Nc1ncnc2[nH]cnc12)c1cc2cccc(Cl)c2c(C(=O)N2CC3CCC(C2)O3)n1 experimentalendpoint=IC50 result="< 100 nM"
compound=C[C@H](Nc1ncnc2[nH]cnc12)c1cc2cccc(-c3cnn(C)c3)c2c(N2CCN(C)CC2)n1 experimentalendpoint=IC50 result="< 1000 nM"

Turning now to a further compound:
Input line: Can you share its IC50? I mean this compound: COCC(C)N(C)[C@H]1CC[C@H](CNc2nc(N3CCOCC3)cc(-n3c(C(F)F)nc4ccccc43)n2)CC1 (stereo partly shown)
Output line: 4.3 nM

----------
pIC50: −log10 of the molar value.
# literature pull: PIK3CD (Human) pIC50

# example entries with known answers
compound=Nc1nc2cc(-c3ccc4ncc(C(=O)N5CCN(CCO)CC5)n4c3)ccc2o1 systemname="PIK3CD (Human)" result="< 5.00"
compound=COc1ncc(-c2nc(N3CCOCC3)nc3c(CN4CCN(C(=O)C5CCCCC5)CC4)csc23)cc1NS(C)(=O)=O systemname="PIK3CD (Human)" result=7.77
compound=Cc1cccc2cc([C@H](C)Nc3ncnc4[nH]cnc34)nc(OC3CCN(C(C)C)CC3)c12 systemname="PIK3CD (Human)" result="> 7.00"

Turning now to a further compound:
Input line: What reported pIC50 corresponds to COc1ncc(-c2nc(N3CCOCC3)nc3c(CN4CCC(N5CCC[C@H]5CO)CC4)c(C)sc23)cc1NS(C)(=O)=O on PIK3CD (Human)?
Output line: 8.33

----------
# literature pull: PIK3CD (Human) IC50
experimentalEndpoint: IC50 (nM)

# example entries with known answers
compound="CC(c1nc2c(c(Br)nn2C)c(=O)n1-c1ccccc1)n1cnc2c(N)ncnc21 (stereo not drawn)" systemname="PIK3CD (Human)" experimentalendpoint=IC50 unitinfo=nM measurednumber=665
compound=CS(=O)(=O)N1CCN(Cc2cccc3c(-c4cnc(N)nc4)nc(N4CCOCC4)nc23)CC1 systemname="PIK3CD (Human)" experimentalendpoint=IC50 unitinfo=nM measurednumber=58.6

(P) CC(C)(O)CN(CC(C)(C)O)[C@H]1CC[C@H](CNc2nc(N3CCOCC3)cc(-n3c(C(F)F)nc4ccccc43)n2)CC1
(Q) CCN(CC)c1ncc2c(n1)-c1sc(NC(=O)N3C[C@@H](N(C)C)C[C@H]3C(N)=O)nc1CC2
(R) CC(=O)NC[C@@H]1CCN(C(=O)Nc2nc3c(s2)-c2nc(C(C)(C)C)ncc2CC3)[C@@H]1C(N)=O
(S) N#Cc1cc2cnc(Nc3ccc(N4CCN5CCCCC5C4)c(F)c3)nc2n(C2CCCC2)c1=O (stereo not drawn)
(T) CC(=O)N1CCN(Cc2csc3c(-c4cccc5[nH]ccc45)nc(N4CCOCC4)nc23)CC1
Input line: Could you please order the items by IC50, going from the lowest number to the highest? Output the labels ranked as instructed.
Output line: T, P, R, S, Q
(T: 3.8 nM, P: 13 nM, R: 40 nM, S: 1310 nM, Q: 1900 nM)

----------
# literature pull: PIK3CD (Human) (UniProt O00329) pIC50
pIC50: −log10 of the molar value.
experimentalEndpoint: pIC50

(I) C=CC(=O)NC1CCN(S(=O)(=O)c2ccc(Nc3ncc4c(n3)N(C)c3ccc(C)cc3C(=O)N4C)cc2)CC1
(II) COc1ncc(-c2nc(N3CCOCC3)nc3c(OC4CCC(N5CCCCC5)CC4)c(C)sc23)cc1NS(C)(=O)=O (stereo not shown)
(III) COc1ncc(-c2nc(N3CCOCC3)nc3c(CN4CCC[C@H]4C(C)(C)O)cc(F)cc23)cc1NS(C)(=O)=O
Input line: Could you please order the items by pIC50, going from the lowest number to the highest? Output the labels ranked as instructed.
Output line: III, I, II
(III: 7.06, I: 7.31, II: 7.96)

----------
# literature pull: PIK3CD (Human) (UniProt O00329) IC50

molecule="CN1CC(C(=O)N2CC[C@H](Nc3cc(-n4c(C(F)F)nc5ccccc54)nc(N4CCOCC4)n3)C2)CC1=O (stereo partly shown)" result="15 nM"
molecule=CCc1ccccc1-n1c(Cn2nc(-c3cccc(O)c3)c3c(N)ncnc32)cc2cccc(C)c2c1=O result="< 100 nM"
molecule=COc1ncc(-c2nc(N3CCOCC3)nc3c(CN4CC[C@@H](N5CCC[C@H]5C)C4)c(C)sc23)cc1NS(C)(=O)=O result="7.7 nM"
molecule=COc1ccccc1-n1c(Cn2nc(-c3cc(O)cc(F)c3)c3c(N)ncnc32)cc2cccc(C)c2c1=O result="< 100 nM"
molecule=C[C@H](NC(=O)c1c(N)nn2c1NCCC2)c1cc2cccc(Cl)c2c(=O)n1-c1ccccc1 result="> 10000 nM"
molecule=C[C@H](NC(=O)c1nccnc1N)c1cc2cccc(Cl)c2c(C(=O)N2CCOCC2)n1 result="< 1000 nM"

Turning now to a further molecule:
Input line: What reported IC50 corresponds to Cc1cccc2cc(C(C)Nc3ncnc4[nH]cnc34)n(-c3ccc(F)cc3)c(=O)c12 (stereo not shown) on PIK3CD (Human) (UniProt O00329)?
Output line: < 100 nM
